# METHOD_DESCRIPTION: in vitro
# PARTICULARS: human, hela cells, % viability
compounds and their reported viability at 28.5 h, 10 µM
Express your answer in %, writing the number without its unit.

Worked examples, 3 compounds total:
{"COMPOUND": "CS(=O)(=O)N(Cc1ccccc1)c1ccc(C(=O)N/N=C/c2ccccc2C(F)(F)F)cc1", "viability at 28.5 h, 10 µM, %": 88}
{"COMPOUND": "O=c1c2ccccc2nc2n1CCN(Cc1cccs1)CC2", "viability at 28.5 h, 10 µM, %": 92.3}
{"COMPOUND": "CC(=O)N1CCN(CC[C@@H]2CC[C@H](O)[C@@H](C(=O)N(C)Cc3ccccc3)O2)CC1", "viability at 28.5 h, 10 µM, %": 93.3}

Qu. Consider the compound shown here: COc1cc(/C=N/NC(=O)CSc2n[nH]c(=O)[nH]c2=O)cc(OC)c1O What is its recorded viability at 28.5 h, 10 µM?
Ans. 92.9

Qu. # query: viability at 28.5 h, 10 µM of entry COc1ccccc1OCC(=O)NNC(=O)c1cnccn1
Ans. 109

Qu. Sample Cc1cc(C(C)(C)C)cc(C)c1S(=O)(=O)NCCSCCN — what was its viability at 28.5 h, 10 µM?
Ans. 97.8

Qu. Which value of viability at 28.5 h, 10 µM has been reported for O=C(COc1ccccc1)Nc1nnc[nH]1 in the records?
Ans. 108

Qu. I am curious: what viability at 28.5 h, 10 µM value has been reported for O=[N+]([O-])c1ccc(Oc2ccccc2F)cc1 ?
Ans. 93.9

Qu. # viability at 28.5 h, 10 µM lookup, item Nc1ncc2ncn([C@H]3C[C@@H](O)[C@@H](CO)O3)c2n1
Ans. 102

Qu. So what does the record say about viability at 28.5 h, 10 µM for N#Cc1cccnc1N1CCC(NC(=O)Cn2cccnc2=O)CC1 ?
Ans. 95.7

Qu. Data request, read-out viability at 28.5 h, 10 µM, for O=C1CN(C(=O)Nc2ccccc2Cl)CCN1
Ans. 96.7

Qu. Fill blank: measured viability at 28.5 h, 10 µM of the compound CCC(CC)C(=O)Nc1nc(OCCN2CCCC2=O)cnc1-c1ccc(Cl)cc1Cl is ____.
Ans. 92.6

Qu. # input compound: CC(=O)c1ccc(-c2nc(-c3cccc(OC(F)(F)F)c3)cnc2N)cc1 ; wanted: its viability at 28.5 h, 10 µM
Ans. 103

Qu. # query: viability at 28.5 h, 10 µM of entry CS(=O)(=O)Nc1cccc(-c2cnc3[nH]c(=O)n(Cc4ccc(S(C)(=O)=O)cc4)c3n2)c1
Ans. 98.6

Qu. I'd like to know its viability at 28.5 h, 10 µM. The compound in question is CN(CC(=O)OCC(=O)c1ccccc1)S(=O)(=O)c1ccc(Cl)cc1
Ans. 105

Qu. Consider the compound shown here: CCOC(=O)c1cnc2ccc(Cl)cc2c1NC What is its recorded viability at 28.5 h, 10 µM?
Ans. 71.1

Qu. Suppose we examine the compound N#CC1CCCc2c1[nH]c1ccc(Cl)cc21 (stereo not drawn) ; what viability at 28.5 h, 10 µM value has been reported?
Ans. 63.9

Qu. What does the record list as viability at 28.5 h, 10 µM for O=C1NC2(CCNCC2)Oc2ccc(-c3cccnc3)cc21 ?
Ans. 95.4

Qu. Query: viability at 28.5 h, 10 µM; subject: COc1ccc(Br)cc1/C=C/C(=O)NC(=S)Nc1cc(C(=O)O)ccc1Cl
Ans. 90.7

Qu. Look up viability at 28.5 h, 10 µM: COc1ccc(CCOc2cnc(-c3ccccc3)c(N)n2)cc1
Ans. 98.8

Qu. Returns the measured viability at 28.5 h, 10 µM for the input compound. Input: Cc1cc(NS(=O)(=O)c2ccc(NC(=S)NC3CCCCC3)cc2)no1
Ans. 91.3

Qu. Look up viability at 28.5 h, 10 µM for this compound: Cc1occc1-c1nnc(SCC(=O)c2ccc3c(c2)OCCO3)o1
Ans. 83.5

Qu. # query: viability at 28.5 h, 10 µM of entry Fc1cccc(-c2nc3cnccn3c2NCc2ccco2)c1
Ans. 93.5

Qu. Data request, read-out viability at 28.5 h, 10 µM, for CNC(=O)CN1C(=O)CC2(C1=O)C(=O)N(C)c1ccc(OC)cc12 (stereo not drawn)
Ans. 91.5

Qu. Entry under review: COc1cc(/C=N/NC(=O)CNC(=O)c2ccncc2)ccc1O . Reported viability at 28.5 h, 10 µM?
Ans. 102

Qu. May I ask what viability at 28.5 h, 10 µM has been recorded for O=C1NCC2(C/C=C/CCOc3ccccc31)CCN(C(=O)CCN1CCCC1=O)CC2 ?
Ans. 99.3

Qu. Would you kindly share the measured viability at 28.5 h, 10 µM for CCNc1nccnc1-c1ccccc1Cl ?
Ans. 79.9

====

Each record here notes measured viability at 28.5 h, 10 µM.
# METHOD_DESCRIPTION: in vitro
# PARTICULARS: human, hela cells, % viability
Answer with a number only, understood to be in %.

{"COMPOUND": "O=C(O)Cc1nnc(CNc2ccc(Cl)cc2)[nH]1", "MEASUREMENT_UNIT": "%", "viability at 28.5 h, 10 µM": 81.7}
{"COMPOUND": "Cc1cccc(C)c1NC(=O)C(=O)NCCCN1CCOCC1", "MEASUREMENT_UNIT": "%", "viability at 28.5 h, 10 µM": 90.6}
{"COMPOUND": "C/C(=N\\N=C1\\N=C(O)C(CC(=O)O)S1)c1ccco1 (centres unmarked)", "MEASUREMENT_UNIT": "%", "viability at 28.5 h, 10 µM": 96.8}
{"COMPOUND": "COc1ccc2ccccc2c1CN1CCN(Cc2ccccc2)CC1", "MEASUREMENT_UNIT": "%", "viability at 28.5 h, 10 µM": 98.5}

Qu. Name the reported viability at 28.5 h, 10 µM value associated with the compound CC(NC(=O)Cn1c(-c2nonc2N)nc2ccccc21)c1ccccc1 (centres unmarked)
Ans. 106

====

Reported viability at 28.5 h, 10 µM values follow for various compounds
# METHOD_DESCRIPTION: in vitro
# PARTICULARS: human, hela cells, % viability
A number alone suffices; assume %.

Solved entries:
{"COMPOUND": "COc1ccc(C(=O)N[C@H]2C[C@H]3C(=O)NC[C@@H](CCC(=O)N4CCN(C)CC4)N3C2)cc1", "MEASURED_RESULT": 90.6}
{"COMPOUND": "O=C1c2ccccc2C(=O)N1CC1c2ccccc2CCN1S(=O)(=O)c1cccc2nsnc12 (stereo not drawn)", "MEASURED_RESULT": 108}
{"COMPOUND": "CC(CCCC(C)(C)O)Nc1cncc(-c2cccc(C(=O)O)c2)n1 (stereo not drawn)", "MEASURED_RESULT": 103}

Qu. Need viability at 28.5 h, 10 µM, item CC1CCc2nn(CCNC(=O)Cc3cccs3)c(=O)cc2C1 (stereo not drawn)
Ans. 88.8

Qu. # get_value(readout='viability at 28.5 h, 10 µM', item= CCOC(=O)c1cccc(-n2ncc(CN(C)C)n2)c1 )
Ans. 91.4

Qu. I have this compound here, CS(=O)(=O)c1ccc(-n2nnnc2CNC2(CO)CCCC2)cc1 , and I need its recorded viability at 28.5 h, 10 µM.
Ans. 91.8

Qu. Data request, read-out viability at 28.5 h, 10 µM, for COc1cc(CNc2nccnc2-c2ccc(F)cc2)cc(OC)c1OC
Ans. 90.3

Qu. Which viability at 28.5 h, 10 µM is listed for CSCCOc1nc2ccccc2nc1N1CCCC1 ?
Ans. 91.3

Qu. GET /values?readout=viability at 28.5 h, 10 µM&item= COc1ccc(-n2c(SCc3nc4ccccc4[nH]3)nc3sc4c(c3c2=O)CCCC4)cc1
Ans. 100

====

The following compounds are shown together with reported viability at 28.5 h, 10 µM values.
# METHOD_DESCRIPTION: in vitro
# PARTICULARS: human, hela cells, % viability
Output spec: scalar in %, unitless text.

See these solved cases before continuing.
{"COMPOUND": "COc1ccc2[nH]c(=O)c(CN(CCN(C)C)C(=S)Nc3ccc(F)cc3)cc2c1", "viability at 28.5 h, 10 µM [%]": 97.1}
{"COMPOUND": "COc1cccc2cc(C(=O)Nc3cccc(C)n3)oc12", "viability at 28.5 h, 10 µM [%]": 94.5}
{"COMPOUND": "CCNC(=O)N1CC2(CCN(CCCCC3NC(=O)NC3=O)CC2)c2ccccc21 (stereo not drawn)", "viability at 28.5 h, 10 µM [%]": 92.2}
{"COMPOUND": "COCCn1c(SCCC(=O)O)nc2c1c(=O)[nH]c(=O)n2C", "viability at 28.5 h, 10 µM [%]": 82}
{"COMPOUND": "O=C(Cn1cccc2cc(-c3ccc(F)cc3)nc1-2)N1CCOCC1", "viability at 28.5 h, 10 µM [%]": 87.5}

Qu. Query: viability at 28.5 h, 10 µM; subject: Cc1cc(Cl)c(S(=O)(=O)N2CCN(c3ccccn3)CC2)cc1OCC(N)=O
Ans. 117

Qu. Which viability at 28.5 h, 10 µM reading was recorded for the compound CS(=O)(=O)N(CC(=O)Nc1ccc(S(=O)(=O)N2CCCCC2)cc1)c1ccc2c(c1)OCO2 ?
Ans. 96.4

Qu. Entry CCn1c(CC2CCN(C(=O)c3ccc(C)c(C)c3)CC2)nn(C)c1=O has what viability at 28.5 h, 10 µM?
Ans. 87.8

Qu. Would you kindly share the measured viability at 28.5 h, 10 µM for O=C(CSCc1ccc(Cl)cc1Cl)Nc1cccc(O)c1 ?
Ans. 110

From: paper PMC12040169
